- systemName: T1, soluble Homo sapiens CD131 comprising a C-terminal 6xHis tag (human, UniProt P32927 17-438)
- T1 construct: truncated after Ser438, C-terminal 6xHis; also called shCD131; shβc
- T1 sequence: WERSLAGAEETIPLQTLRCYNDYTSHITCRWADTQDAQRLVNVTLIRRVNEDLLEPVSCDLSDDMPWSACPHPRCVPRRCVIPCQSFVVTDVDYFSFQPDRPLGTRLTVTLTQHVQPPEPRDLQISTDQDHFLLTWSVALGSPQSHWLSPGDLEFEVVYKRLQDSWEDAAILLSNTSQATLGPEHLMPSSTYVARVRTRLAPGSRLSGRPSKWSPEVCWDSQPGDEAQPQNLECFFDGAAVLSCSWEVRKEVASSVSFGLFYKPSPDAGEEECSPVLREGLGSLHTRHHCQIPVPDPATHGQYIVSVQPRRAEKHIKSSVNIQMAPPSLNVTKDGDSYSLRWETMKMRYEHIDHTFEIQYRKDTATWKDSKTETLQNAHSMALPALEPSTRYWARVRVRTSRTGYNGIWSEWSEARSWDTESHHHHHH
- procedureDetails: SPR, Fab over captured shCD131
kon for assorted binders
Write the number in M⁻¹ s⁻¹ without appending the unit.

binder	kon (M⁻¹ s⁻¹)
9A2-VR39 Fab (Fab, V domains shown, recombinant Fab) VH: EVQLLESGGGLVQPGGSLRLSCAASGFTFSHYHMLWVRQAPGKGLEWVSSINGRGRVTYYADSVKGRFTISRDNSKNTLYLQMNSLRAEDTAVYYCARFYDSFFDIWGQGTMVTVSS VL: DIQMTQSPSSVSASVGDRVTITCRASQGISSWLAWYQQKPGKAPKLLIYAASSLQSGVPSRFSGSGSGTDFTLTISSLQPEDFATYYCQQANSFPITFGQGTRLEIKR	3e+06

# input for lookup
Prompt: Consider the binder shown here: 9A2-VR39.110 Fab (Fab, V domains shown, recombinant Fab) VH: EVQLLESGGGLVQPGGSLRLSCAASGFTFVWYHHIWVRQAPGKGLEWVSSINGRGRVTYYADSVKGRFTISRDNSKNTLYLQMNSLRAEDTAVYYCARFYDSFFDIWGQGTMVTVSS VL: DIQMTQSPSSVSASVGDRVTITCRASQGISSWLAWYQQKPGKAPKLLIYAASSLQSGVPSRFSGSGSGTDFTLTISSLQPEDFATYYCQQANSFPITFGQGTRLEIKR What is its recorded kon?
Completion: 3.8e+06
